All figures here come from the supplement of paper PMC7023306.

TIMS collision cross section in N2 by entry:
method: TIMS collision cross section in N2 (TIMS CCS N2); higher = larger gas-phase ion size
experimental setup: ion species: [M-3H]-; drift gas: N2 (99.4% N2, 0.6% O2); calibration: Stow et al. 2017 values for Agilent ESI-L Low Concentration Tune Mix; ionization: negative ESI
property name: TIMS collision cross section in N2 (Å²)

- O=C(O)[C@H]1O[C@@H](Oc2cc3oc(-c4ccc(O)cc4)cc(=O)c3c(O)c2O)[C@H](O)[C@@H](O)[C@@H]1O [scutellarin (Scutellarein-7-glucuronide)]: 206.59
- O=C(O)[C@H]1O[C@@H](Oc2cc3oc(-c4ccc(O)cc4)cc(=O)c3c(O)c2O)[C@H](O)[C@@H](O)[C@@H]1O [Scutellarein-7-glucuronide]: 202.76
- O=C1CC(c2ccc(O)c(O)c2)Oc2cc(O)c(O)cc21 (stereo unspecified) [6,7,3',4'-Tetrahydroxyflavanone]: 161.92
- O=c1c(O)c(-c2cc(O)c(O)c(O)c2)oc2cc(O)ccc12 [3,7,3',4',5'-Pentrahydroxyflavone (robinetin)]: 160.55
- O=C(/C=C/c1ccc(O)c(O)c1)O[C@@H]1C[C@](O)(C(=O)O)C[C@@H](O)[C@H]1O: 187.02
- O=c1cc(-c2ccccc2)oc2cc(O)c(O)c(O)c12: 158.42
- O=c1cc(-c2ccc(O)cc2)oc2cc(O)c(O)c(O)c12: 156.37
- COc1ccc(-c2cc(=O)c3c(O)cc(O)cc3o2)cc1 [5,7-Dihydroxy-4'-methoxyflavone]: 165.19
- O=c1c(-c2ccc(O)c(O)c2)coc2cc(O)ccc12 [3',4',7-Trihydroxyisoflavone]: 155.92
- COc1ccc(C2CC(=O)c3c(ccc(O)c3O)O2)cc1OC (stereo unspecified) [5,6-dihydroxy-3',4'-dimethoxy-flavanone]: 179.11
- O=c1c(-c2ccc(O)c(O)c2)coc2cc(O)ccc12 [7,3',4'-TRIHYDROXYISOFLAVONE]: 156.67
